Tested on: Bacillus subtilis
METHOD SUMMARY: Inhibition of DHPS in Bacillus subtilis assessed as antibacterial activity by measuring inhibition zone at 5 mg/mL incubated for 24 hrs by disk diffusion method
inhibition zone (IZ) values for the molecules below.
Answer with a number only, understood to be in mm.

C=CCN/C(S[C@@H]1O[C@H](COC(C)=O)[C@H](OC(C)=O)[C@H](OC(C)=O)[C@H]1OC(C)=O)=C(/C#N)C(=O)Nc1ccc(S(=O)(=O)Nc2onc(C)c2C)cc1; 20.8
CCN/C(SCC)=C(/C#N)C(=O)Nc1ccc(S(=O)(=O)Nc2onc(C)c2C)cc1; 26.3
CN/C(S[C@@H]1O[C@H](COC(C)=O)[C@H](OC(C)=O)[C@H](OC(C)=O)[C@H]1OC(C)=O)=C(/C#N)C(=O)Nc1ccc(S(=O)(=O)Nc2onc(C)c2C)cc1; 16.8

Next molecule, inhibition zone (IZ) to be filled in.
Task item: Bench note: what inhibition zone (IZ) did `Cc1noc(NS(=O)(=O)c2ccc(NC(=O)/C(C#N)=C(/S)NC34CC5CC(CC(C5)C3)C4)cc2)c1C` show?
Reply: 17.4

Cited source for all entries: ChEMBL document CHEMBL4627352
